Origin of the recorded values: patent US8975234B2

- Test system: standard MRSA strain (ATCC 33591)
- test_description: Minimum inhibitory concentration (broth microdilution)
- Type: cell-based, Staphylococcus aureus
- assay_conditions: Staphylococcus aureus, Table 1
value_type: MIC (µg/mL)
// units = µg/mL; emit number, no label

Simply: C[C@H]1COc2c(N3CCN(C)CC3)c(F)cc3c(=O)c(C(=O)O)cn1c23 [Levofloxacin] , standard MRSA strain (ATCC 33591), MIC = 32

Simply: C[C@H]1c2cccc(O)c2C(=O)C2=C(O)[C@]3(O)C(=O)C(C(N)=O)=C(O)[C@@H](N(C)C)[C@@H]3[C@@H](O)[C@@H]21 [Doxycycline] , standard MRSA strain (ATCC 33591), MIC = 64

Simply: Cc1onc(-c2ccccc2)c1C(=O)N[C@@H]1C(=O)N2[C@@H]1SC(C)(C)[C@@H]2C(=O)O [Oxacillin] , standard MRSA strain (ATCC 33591), MIC = 512
